Where these numbers come from: patent US20250197425A1

Measured HLM CLint of individual entries
Test: CLint assessment in human liver microsomes (HLM)
Type: in vitro ADME
Conditions: 1 μM
Method: After a preincubation with NADPH for 8 minutes, reactions were initiated through the addition of the test compound (final volume 250 μl) and incubated at 37° C. in a water bath for 30 minutes. […] Samples were shaken at 800 rpm for 2 minutes and centrifuged at 4000 rpm for 20 minutes at 4° C. to pellet precipitated protein. The supernatant fraction was diluted 1:5 with deionized water, shaken at 1000 rpm for 2 minutes, and further diluted 1:1 with deionized water. Samples were analyzed by LC-MS/MS. […]
Answer with a number only, understood to be in µL/min/mg.

Solved cases (2 shown):
CC[C@H](Nc1nc(N[C@H]2CCN(S(=O)(=O)c3cn(C)cn3)C2)c2ncn(C(C)C)c2n1)[C@@H](C)O :: 73
CCNS(=O)(=O)N1CC[C@H](Nc2nc(N[C@@H](CO)CC3CC3)nc3c2ncn3CC)C1 (relative stereo) :: 202

# context switch: different molecule, same HLM CLint
Query: What value of HLM CLint has been reported for the following molecule? CC[C@H](Nc1nc(N[C@@H]2CN(S(=O)(=O)NC)C[C@H]2F)c2ncn(CC)c2n1)[C@@H](C)O (relative stereo)
Result: 21.1

* * *

Measured pIC50 of individual entries
Target: CDK4:CCND1 (Homo sapiens (Human), UniProt P11802)
Sequence (P11802 whole entry): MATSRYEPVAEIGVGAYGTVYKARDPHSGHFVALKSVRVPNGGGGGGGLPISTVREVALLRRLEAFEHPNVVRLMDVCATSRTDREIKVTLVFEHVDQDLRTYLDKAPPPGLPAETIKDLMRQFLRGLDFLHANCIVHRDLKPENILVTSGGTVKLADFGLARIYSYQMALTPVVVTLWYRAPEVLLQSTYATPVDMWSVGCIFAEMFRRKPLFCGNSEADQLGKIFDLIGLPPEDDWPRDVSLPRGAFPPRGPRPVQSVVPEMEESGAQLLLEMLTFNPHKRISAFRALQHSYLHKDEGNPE
Sequence (P24385 whole entry partner): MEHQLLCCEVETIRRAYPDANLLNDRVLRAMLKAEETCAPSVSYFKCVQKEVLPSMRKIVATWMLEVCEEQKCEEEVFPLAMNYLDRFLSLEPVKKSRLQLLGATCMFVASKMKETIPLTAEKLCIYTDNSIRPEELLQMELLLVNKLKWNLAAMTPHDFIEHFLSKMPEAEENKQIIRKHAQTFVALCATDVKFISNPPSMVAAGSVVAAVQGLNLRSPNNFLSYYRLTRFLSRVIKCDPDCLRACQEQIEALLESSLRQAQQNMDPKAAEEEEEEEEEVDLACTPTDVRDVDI
Assay: NanoBRET assay in MCF-7 cells, CDK4
Assay type: cell-based
Details: NanoBRET, transfected MCF-7 cells, 2 hours; n = 1 or average; read-out: CDK4 IC50
Description: Compounds were tested in breast cancer cell line MCF-7 to assess inhibition of CDK1, CDK2, and CDK4 activity. […] The plates were incubated in subdued lighting for 10 minutes and then read on a Pherastar FS plate reader (BMG Technologies) using a NanoBRET™ filter module (460±80 nm/610 nm-LP). The ratio values were normalized to controls and the IC50 values of test compounds determined using Genedata Screener software.
Please express pIC50 as -log10 of the molar concentration.

Solved cases (3 shown):
CCn1cnc2c(N[C@H]3CCN(S(=O)(=O)NC)C3)nc(N[C@@H](C)[C@@H](O)C(F)(F)F)nc21 (single isomer, unassigned) [Example 49] :: 5.36
CCn1cnc2c(N[C@H]3CCN(S(=O)(=O)NC)C3)nc(-c3cccc4c3CC[C@H]4O)nc21 [Example 2] :: 4.75
CCn1cnc2c(N[C@H]3CCN(S(=O)(=O)NC)C3)nc(-c3cccc4c3CNC4=O)nc21 [Example 1] :: 4.92

Query: What value of pIC50 has been reported for the following compound? CC(C)n1cnc2c(N[C@H]3CCN(S(C)(=O)=O)C3)nc(N[C@@H](CO)C3CC3)nc21 [Example 30]
Result: 5.24

* * *

system: OVCAR3 cells; test: Cell proliferation CyQUANT assay, OVCAR3; type: cell-based; conditions: Homo sapiens, OVCAR-3, 168 h; CyQUANT cell counts, 7 days
assay readout: IC50

Solved cases (2 shown):
CCNS(=O)(=O)N1CC[C@H](Nc2nc(N[C@@H](CO)C3CC3)nc3c2ncn3C)C1 :: 201 nM
CCNS(=O)(=O)N1CC[C@H](Nc2nc(N[C@@H](CC)[C@@H](C)O)nc3c2ncn3CC)C1 :: 77 nM

Query: What value of IC50 has been reported for the following compound? O=S(=O)(c1ncc[nH]1)N1C[C@@H](F)[C@H](Nc2nc(N[C@@H](CO)C3CC3)nc3c2ncn3C(F)F)C1 (relative stereo)
Result: 34 nM
